Below, each entry is listed alongside its reported R.I. (resistance index).
System: MCF7/ADR cells
Experiment: MTT cell viability assay, DOX-resistant MCF7/ADR
Type: cell-based, human
Conditions: MCF7/ADR vs MCF7
MEASUREMENT KIND: R.I. (resistance index)

molecule=CCn1cc(C(=O)O)c(=O)c2cc(F)c(N3CCN(c4ccc([N+](=O)[O-])c(C(F)(F)F)c4)CC3)cc21 target_under_test="MCF7/ADR cells" measurement_kind="R.I. (resistance index)" measured=1.1
molecule=CCn1cc(C(=O)O)c(=O)c2cc(F)c(N3CCN(CCNc4ccc([N+](=O)[O-])c(C(F)(F)F)c4)CC3)cc21 target_under_test="MCF7/ADR cells" measurement_kind="R.I. (resistance index)" measured=8.1
molecule=CCn1cc(C(=O)O)c(=O)c2cc(F)c(N3CCN(CCCNc4ccc([N+](=O)[O-])c(C(F)(F)F)c4)CC3)cc21 target_under_test="MCF7/ADR cells" measurement_kind="R.I. (resistance index)" measured=3.4
molecule=CCn1cc(C(=O)OC)c(=O)c2cc(F)c(N3CCN(c4ccc([N+](=O)[O-])c(C(F)(F)F)c4)CC3)cc21 target_under_test="MCF7/ADR cells" measurement_kind="R.I. (resistance index)" measured=1.3
molecule=CCn1cc(C(=O)OC)c(=O)c2cc(F)c(N3CCN(CCCNc4ccc([N+](=O)[O-])c(C(F)(F)F)c4)CC3)cc21 target_under_test="MCF7/ADR cells" measurement_kind="R.I. (resistance index)" measured=2.7
molecule=O=C(O)c1cn(C2CC2)c2cc(N3CCN(CCNc4ccc([N+](=O)[O-])c(C(F)(F)F)c4)CC3)c(F)cc2c1=O target_under_test="MCF7/ADR cells" measurement_kind="R.I. (resistance index)" measured=4.7
molecule=O=C(O)c1cn(C2CC2)c2cc(N3CCN(CCCNc4ccc([N+](=O)[O-])c(C(F)(F)F)c4)CC3)c(F)cc2c1=O target_under_test="MCF7/ADR cells" measurement_kind="R.I. (resistance index)" measured=4.5
molecule=CCn1cc(C(=O)OC)c(=O)c2cc(F)c(N3CCN(CCNc4ccc([N+](=O)[O-])c(C(F)(F)F)c4)CC3)cc21 target_under_test="MCF7/ADR cells" measurement_kind="R.I. (resistance index)" measured=1.1
molecule=COC(=O)c1cn(C2CC2)c2cc(N3CCN(c4ccc([N+](=O)[O-])c(C(F)(F)F)c4)CC3)c(F)cc2c1=O target_under_test="MCF7/ADR cells" measurement_kind="R.I. (resistance index)" measured=1.3
molecule=COC(=O)c1cn(C2CC2)c2cc(N3CCN(CCCNc4ccc([N+](=O)[O-])c(C(F)(F)F)c4)CC3)c(F)cc2c1=O target_under_test="MCF7/ADR cells" measurement_kind="R.I. (resistance index)" measured=1.5
molecule=COC(=O)c1cn(C2CC2)c2cc(N3CCN(CCNc4ccc([N+](=O)[O-])c(C(F)(F)F)c4)CC3)c(F)cc2c1=O target_under_test="MCF7/ADR cells" measurement_kind="R.I. (resistance index)" measured=0.9
molecule="CCn1cc(C(=O)O)c(=O)c2cc(F)c(N3CCNCC3)cc21 [Nor, Norfloxacin, reference compound]" target_under_test="MCF7/ADR cells" measurement_kind="R.I. (resistance index)" measured=1.0
molecule=O=C(O)c1cn(C2CC2)c2cc(N3CCN(c4ccc([N+](=O)[O-])c(C(F)(F)F)c4)CC3)c(F)cc2c1=O target_under_test="MCF7/ADR cells" measurement_kind="R.I. (resistance index)" measured=1.0
